# Assay Procedure: folding stability dG unfold (combined trypsin and chymotrypsin); higher = more stable
# folding stability dG unfold >= 0.7 kcal/mol gives TRUE, anything below gives FALSE

Would you please look over these solved cases?
>  <Primary Sequence>
SGVSVKVTVEGNTITIEVSADAKIKIEVTFPTKKATYEVEVEPGKPVTFTIPLPKDVPKDAFIDKIDIGGSA [r9_1152_TrMRF]

>  <Class Assignment>
TRUE

$$$$
>  <Primary Sequence>
SAGGSPGSSLIGKKKLTIKVDNKDVEVEVTTSLSFLPSNQVTTSTEVKITLPNGKKIPKSLVEKLLSAGGSA [r2_363_JUSTAS]

>  <Class Assignment>
TRUE

$$$$
>  <Primary Sequence>
SAGGSAGGSAGGGLGYRTLTGRVEFELNITYLTEDGSPATLNLRFELELRFVVPVPPDYPSAGGSAGGSAGG [r7_926_TrMRF]

>  <Class Assignment>
TRUE

$$$$
>  <Primary Sequence>
MKPIPAEEIRDLAQKLGLPLPPGQIQIKVRHNNKKKTFPIPAGDPITIDDIVENMQQQNPNIKDIEIVIHPS [r1_135_TrROS]

>  <Class Assignment>
FALSE

$$$$
>  <Primary Sequence>
SAGGSQEELAKQLAEELAKKEGLKEVKVSITPSPGPVLNITFEFYDENGNKKGVKSKTIPLPPDLLSAGGSA [r2_153_JUSTAS]

>  <Class Assignment>
FALSE

$$$$
>  <Primary Sequence>
SAGGSAGGSAGGSMTSIKITYPDGSTKSASVSVDPNTGKVTTTFTDYTLSPDAKFTTISSAGGSAGGSAGGS [r10_306_JUSTAS]

>  <Class Assignment>
FALSE

$$$$

From here, focus on the item given below.
Could you please find out whether SAGGDWVPIEFTIMVPAEELQEGKPPTAEDIVEELFPPNFNVDIDVQQFPGNGYVYATVKIWVPPGMPSAGG [r13_862_TrROS] has folding stability dG unfold that meets 0.7 kcal/mol or exceeds it? TRUE
